For each of the compounds below, state its growth.
System: DU-145 prostate
Experiment: NCI-60 one-dose screen, 48 h (100 = growth as untreated, 0 = no growth, -100 = all killed)
Details: 10 µM unless noted
About 83,000 compounds went through this panel and 20% of them were active in at least one assay; those are over-represented in the sample as a whole.
Just the number in %, nothing appended.

Input O=C1CC23OC(C(O)c4ccccc4N12)C1C(c2ccccc2)=NOC13 (centres undefined) . Output growth: 81.9

Record `CC(C)CSc1nc(Nc2ccccc2)c(C#N)c(-c2ccc(F)cc2)n1` , field growth: 75.9

For reference, reported growth for `CCCCn1c(=O)c(/C=C/C(=O)/C=C/c2ccc(O)c(OC)c2)cc2ccc(Cl)cc21` stands at 19.3

Recorded result, `Cn1cc(-c2ccc3c(c2)ncn3-c2ccc(CC(=O)Nc3cc(C(C)(C)C)on3)cc2)cn1` , growth: 19.3

GET /value?item= `O=C(CCc1nnc2sc(OCc3ccccc3)nn12)c1nc2ccc([N+](=O)[O-])cc2[nH]1` &field=growth returns 103

Form: compound = `CC(=O)Nc1ccc2c(c1)Cc1cc(F)ccc1-2` ; growth = 96.4

Recorded result, `O=C1Nc2ccc(Cl)cc2/C1=N/c1nc(-c2ccc(Cl)cc2)cs1` , growth: 26.2

The reported growth of the compound `C=C(C)[C@@H]1CC[C@]2(C(=O)OCCOCCOCC[P+](c3ccccc3)(c3ccccc3)c3ccccc3)CC[C@]3(C)[C@H](CC[C@@H]4[C@@]5(C)CC[C@H](OC(C)=O)C(C)(C)[C@@H]5CC[C@]43C)[C@@H]12` was -91.1

Looking up `Cc1c(Cl)cccc1NC(=O)c1sc2nc3c(cc2c1N)COCC3` , I found its growth recorded as 33

Reported growth ( `O=C1c2ccccc2C(=O)c2c1oc1c2c(=O)[nH]c2ccc(Cl)cc21` ) = -45.4

Entry `COc1ccc2[nH]c(=O)c(/C=C/C(=O)/C=C/c3ccc(O)c(OC)c3)cc2c1` ; growth = 8.26

# growth (compound: `CC(=O)Oc1c2c(nc3c1c1ccccc1n3Cc1ccccc1)-c1ccccc1C2` ) is 99.1

get_value(item= `CC(C)(C#N)c1cc(F)cc(C(=O)Nc2cc(Nc3ncccc3-c3ncnc4nc[nH]c34)ccc2F)c1` , readout=growth) returns 56.1

Consider COC(=O)/C=C/c1cc(OC(C)=O)c2c(c1)C(C(=O)OC)C(c1ccc(OC(C)=O)c(OC(C)=O)c1)O2 (centres undefined) . Its measured growth is 11.2

The compound identified as `CCC[S@@](=O)c1ccc2nc(NC(=O)OC)[nH]c2c1` registered its growth at 107

get_value(item= CCOC(=O)C1=C(C)n2nc(CC#N)c(C#N)c2NC1c1ccc(CC)cc1 (centres undefined) , readout=growth) returns 106

Notebook: `Cc1cc(Cl)cc(CN(Cc2ccccc2)Cc2c(O)ccc3ccccc23)c1O` , growth read as 98.1

The compound `CN(C)C1=NCCN1` showed growth equal to 108

Entry under test: `CN(C)[C@@H]1C(=O)C(C(N)=O)=C(O)[C@@]2(O)C(=O)C3=C(O)c4c(O)cc(CN5CCc6ccccc6C5)c(Cl)c4C[C@H]3C[C@@H]12` . Its growth was -92.2
